# System: 20-HETE formation (CYP4) in HLM
# Test: Inhibition of 20-HETE formation at 250 or 500 nM in HLM microsomal incubations
# Type: biochemical, human
# Run Conditions: 500 nM compound; HLM 300 μg/ml, AA 100 μM, 20 min
Parameter: HLM % inh. @ 500 nM (%)
Give just the numeric value; % need not be written.

Input: Entry COc1ccccc1C1CCN(c2ccn[nH]2)CC1 has what HLM % inh. @ 500 nM?
Output: 8.80

Input: What do we get for Cl.Clc1ccc(CC2CCN(c3cn[nH]c3)CC2)cc1 ?
Output: 85.50

Input: And what about the compound Clc1ccc(C2CCN(c3cn[nH]c3)CC2)cc1 ?
Output: 74.3

More entries:
Input: Fill in: HLM % inh. @ 500 nM of CC(Nc1ccc(C2CCN(c3cn[nH]c3)CC2)cc1)C(F)(F)F (stereo not shown) is ___
Output: 86.1

Input: What about COc1cncc(C2CCN(c3ccn[nH]3)CC2)c1 ?
Output: 3.70

Input: Would you mind doing CC(=O)N(C)c1ccc(C2CCN(c3ccn[nH]3)CC2)c(F)c1 as well?
Output: 82

Input: Same again, this time with O=C1CCCN1Cc1ccc(C2CCN(c3ccn[nH]3)CC2)cc1
Output: 79.4

Input: O=S(=O)(c1ccccc1)C1CCN(c2ccn[nH]2)CC1 ?
Output: 32.00

Input: Similarly, COc1ccc(C2CCN(c3ccn[nH]3)CC2)cc1 ?
Output: 72.30

Input: COC(=O)c1ccc(C2CCN(c3cn[nH]c3)CC2)cc1 , same question.
Output: 0.00

Input: Same question, COc1cccc(C2CCN(c3cn[nH]c3)CC2)c1 this time
Output: 62.70

Input: For O=C1CCCN1c1ccc(CC2CCN(c3cn[nH]c3)CC2)cc1 then?
Output: 78.90

Input: Similarly, COc1ccc(C2CCN(c3ccn[nH]3)CC2)cc1Cl ?
Output: 83.2
